Target: muscarinic acetylcholine receptors
Experiment: inhibition of specific binding of ^3 H-Oxotremorine-M (^3 H-Oxo)
Conditions: ^3 H-Oxotremorine 1.0 nM, rat cortex, 30 min. at 25° C.
pIC50: −log10 of the molar value.
Endpoint label: pIC50

Consider the following illustrative entries.
{"Compound": "CCCCOc1nsnc1OCCN(C)C", "pIC50": 7.29}
{"Compound": "Fc1ccc(OCCSc2nsnc2OC2CC3CCC2NC3)cc1 (mixture of isomers)", "pIC50": 8.28}
{"Compound": "c1csc(-c2ccc(Sc3nsnc3OC3CN4CCC3CC4)s2)c1 (racemic)", "pIC50": 7.06}

[A] CC(Oc1nsnc1OC1CN2CCCC1C2)C1CC1 (mixture of isomers)
[B] CCCCOc1nsnc1OC1CCCNC1 (racemic)
Please tell me which of the two, A or B , has the higher reported pIC50 value. Please reply using the label of the selected record. A

---

Biological target: muscarinic receptors (M1 -site, pirenzepine sensitive site) (Rattus norvegicus)
Construct: from tissue; host or cells: cerebral cortex membranes of male Wistar rats
Sequence (P08482 whole entry): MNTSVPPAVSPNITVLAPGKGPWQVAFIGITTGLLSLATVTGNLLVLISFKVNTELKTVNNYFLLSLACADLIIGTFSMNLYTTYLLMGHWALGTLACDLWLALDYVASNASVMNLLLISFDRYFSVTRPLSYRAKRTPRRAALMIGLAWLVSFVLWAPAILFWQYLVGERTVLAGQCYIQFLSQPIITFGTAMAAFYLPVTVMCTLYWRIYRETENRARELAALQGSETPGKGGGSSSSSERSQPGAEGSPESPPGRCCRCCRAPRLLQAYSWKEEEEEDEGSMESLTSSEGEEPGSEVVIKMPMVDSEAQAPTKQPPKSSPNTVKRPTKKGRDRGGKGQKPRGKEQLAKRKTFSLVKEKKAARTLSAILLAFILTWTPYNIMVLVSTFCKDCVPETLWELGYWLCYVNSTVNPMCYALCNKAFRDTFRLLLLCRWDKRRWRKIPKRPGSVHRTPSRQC
Assay: inhibition of ^3 HPRZ (pirenzepine, [N-methyl-^3 H]) binding to rat cerebral cortex membranes
Design: species or system rat (male Wistar
Settings: ^3 HPRZ 1.0 nM, rat cortex, 60 min. at 20° C.; read-out: ^3 HPRZ IC50 (head from b208 on: Pir IC-50)
Endpoint label: IC50 (nM)

{"Molecule": "C1C[C@H]2CN(C1)C[C@H]2Oc1nsnc1OCCC1CC1 (relative stereo)", "IC50 / nM": 2}
{"Molecule": "c1ccc(OCCOc2nsnc2OC2CN3CCC2CC3)cc1 (racemic)", "IC50 / nM": 153}
{"Molecule": "FCCCCOc1nsnc1O[C@@H]1CN2CCC[C@H]1C2 (relative stereo)", "IC50 / nM": 6.9}
{"Molecule": "CCCCSc1nsnc1OC1CC2CCC1NC2 (racemic)", "IC50 / nM": 0.72}

[1] CC(C)=CCOc1nsnc1O[C@@H]1CN2CCC[C@H]1C2 (relative stereo)
[2] c1ccc(OCCOc2nsnc2O[C@@H]2CN3CCC[C@H]2C3)cc1 (relative stereo)
Please tell me which of the two, 1 or 2 , has the higher reported IC50 value. Please reply using the label of the selected record. 2

[1] CCCCSc1nsnc1OCCN(CC)CC
[2] FC(F)(F)C(F)(F)COc1nsnc1O[C@@H]1CN2CCC[C@H]1C2 (relative stereo)
Please tell me which of the two, 1 or 2 , has the higher reported IC50 value. Please reply using the label of the selected record. 1

---

Biological target: muscarinic acetylcholine receptors
Assay: inhibition of specific binding of ^3 H-Oxotremorine-M (^3 H-Oxo)
Details: ^3 H-Oxotremorine 1.0 nM, rat cortex, 30 min. at 25° C.
pIC50: −log10 of the molar value.
Endpoint label: pIC50

{"Compound": "CC#CCCOc1nsnc1O[C@@H]1CN2CCC[C@H]1C2 (relative stereo)", "Target system": "muscarinic acetylcholine receptors", "pIC50": 9.13}
{"Compound": "c1ccc(CCSc2nsnc2OC2CN3CCC2CC3)cc1 (racemic)", "Target system": "muscarinic acetylcholine receptors", "pIC50": 7.54}
{"Compound": "CSCCOc1nsnc1OC1CN2CCC1CC2 (racemic)", "Target system": "muscarinic acetylcholine receptors", "pIC50": 7.72}

[A] CCCCOc1nsnc1OC1CCNC1 (racemic)
[B] CCCCCCOc1nsnc1OC1CC2CCC1NC2 (mixture of isomers)
[C] CCCCOc1nsnc1O[C@H]1CN2CCC[C@@H]1C2 (relative stereo)
List by increasing pIC50. Labels, requested order. A, B, C

Reference source for all entries: patent US5665745A
